Below are log10(IC50) measurements against UniProtKB Q9NWZ3 drawn from the literature.
Plainly stated, the numbers are log10 of IC50 given in nM.

Example entries begin here.
{"COMPOUND": "CC(C)(O)CCc1cn(-c2cnc(-n3ncc4cc(C#N)cnc43)cc2N[C@H]2CC[C@H](F)C2)nn1", "EXPERIMENTAL ENDPOINT": "log10(IC50)", "EXPERIMENTAL RESULT": 0.48}
{"COMPOUND": "CC(C)Nc1cc(-n2ncc3cc(C#N)cnc32)ncc1-n1cc(C(C)(C)N)nn1", "EXPERIMENTAL ENDPOINT": "log10(IC50)", "EXPERIMENTAL RESULT": 2.33}

// log10(IC50) (UniProtKB Q9NWZ3) for CC(C)Nc1c(C(=O)NCCN2CCS(=O)(=O)CC2)cnc2sc(-c3cncs3)cc12 = 1.04

Assay UniProtKB Q9NWZ3, sample COc1cc2nn(C3CCN(CCO)CC3)cc2cc1NC(=O)c1cccc(C(F)(F)F)n1 , log10(IC50) read: 0.00

---

# IC50 against IRAK4 (Homo sapiens (Human), UniProt Q9NWZ3), merged from multiple literature sources

{"COMPOUND": "CN(C)[C@H]1CC[C@H](Oc2ncnc3sc4c(c23)[C@@H](C[C@H](O)C(=O)NCO)CC4)CC1", "EXPERIMENTAL RESULT": "< 5000 nM"}
{"COMPOUND": "CC[C@H]1[C@@H](COc2csc3cc(C(N)=O)c(OC)nc23)NC(=O)[C@@H]1F", "EXPERIMENTAL RESULT": "0.7 nM"}
{"COMPOUND": "CNC(=O)c1cnc(Nc2ccc3ncsc3c2)cc1NC1C2CC3CC1CC(O)(C3)C2 (single isomer, unassigned)", "EXPERIMENTAL RESULT": "17.4 nM"}
{"COMPOUND": "O=C(Nc1nc(CCCCCNc2ccccc2)cn1-c1ccccc1)c1cccc(-c2cn[nH]c2)c1", "EXPERIMENTAL RESULT": "< 50 nM"}
{"COMPOUND": "Cc1cc(Nc2ncc(-c3cncs3)c(N[C@@H]3C[C@H](CO)[C@@H](O)[C@H]3O)n2)cc(C)n1", "EXPERIMENTAL RESULT": "64 nM"}
{"COMPOUND": "CN(C)c1ccc(Nc2ncc(-c3nc4cnccc4s3)c(N[C@@H]3C[C@H](CO)[C@@H](O)[C@H]3O)n2)cc1", "EXPERIMENTAL RESULT": "4 nM"}

For this compound ( CC(C)Nc1cc(-n2ncc3cc(C#N)cnc32)ncc1-c1cn(C2CN(C(=O)OC(C)(C)C)C2)nn1 ), measured IC50 is 13 nM

---

IRAK4 (Homo sapiens (Human)) IC50, compiled from various sources.
Report the figure in nM without appending any unit label.

{"COMPOUND": "CC(C)(O)[C@H](F)CNC(=O)c1cnc(-c2cnc3cc(C#N)cnn23)cc1N[C@H]1CC[C@H](C(C)(C)O)CC1", "TARGET SYSTEM": "IRAK4 (Homo sapiens (Human))", "IC50, nM": 2}
{"COMPOUND": "Cc1nn(C(F)F)cc1C1CCC(Nc2cc(-c3ccc4cc(C#N)cnn34)ncc2C(=O)NC[C@@H](F)C(C)(C)O)CC1 (stereo partly shown)", "TARGET SYSTEM": "IRAK4 (Homo sapiens (Human))", "IC50, nM": 7}

Item: CN(C)C(=O)N1CCC(N2CC(n3cc(NC(=O)c4cccc(-c5cc[nH]n5)n4)c(C(F)F)n3)C2)CC1 | System: IRAK4 (Homo sapiens (Human)) | IC50: 0.68

---

# literature pull: IRAK4 (Homo sapiens (Human), UniProt Q9NWZ3) pIC50
The scale used: pIC50 is minus the common logarithm of the concentration in molar units.

Below are worked cases with known answers.
{"CHEM SMILES": "COc1cc2c(OC[C@@H]3CCC(=O)N3)csc2nc1C(N)=O", "pIC50": 6.25}
{"CHEM SMILES": "CC(C)(O)[C@H](F)CNC(=O)c1cnc(-c2ccc3cc(C#N)cnn23)cc1N[C@H]1CC[C@H](c2cn(C3CC3)nn2)CC1", "pIC50": 9.00}
{"CHEM SMILES": "CC(C)Nc1cc(-n2ccc3cncnc32)ncc1-c1cn(CCN2CCOCC2)nn1", "pIC50": 8.70}

The measured pIC50 that CC(C)Nc1cc(-n2ccc3cncnc32)ncc1-c1cn(CCOCCOCCOCCO)nn1 showed for IRAK4 (Homo sapiens (Human), UniProt Q9NWZ3) is 8.52

---

Literature pIC50 values, system: UniProt:Q9NWZ3.
Keep in mind that pIC50 stands for -log10 of concentration in molar terms.

Take a look at these entries with their results.
{"COMPOUND": "CC(C)Nc1cc(-n2ncc3cc(C#N)cnc32)ncc1-c1cn([C@@H]2CCN(S(C)(=O)=O)C[C@H]2F)nn1 (single isomer, unassigned)", "TARGET SYSTEM": "UniProt:Q9NWZ3", "pIC50": 8.70}
{"COMPOUND": "CC(C)(O)C1C[C@@H](Nc2nc(Nc3cc(F)cc(F)c3)ncc2-c2nc3ccccc3s2)[C@H](O)[C@@H]1O (stereo in doubt)", "TARGET SYSTEM": "UniProt:Q9NWZ3", "pIC50": 6.79}
{"COMPOUND": "CC(C)Nc1cc(Nc2ccc3ncsc3c2)ncc1C(=O)NCC[C@@H](C)NC(=O)CN(C)C", "TARGET SYSTEM": "UniProt:Q9NWZ3", "pIC50": 8.21}

For CC(C)(O)CCc1cn(-c2cnc(-n3ncc4cc(C#N)cnc43)cc2NC2CCC(F)C2)nn1 (centres unmarked) the compound record lists pIC50 as 8.52

pIC50 reading for CC(C)Nc1cc(-n2ncc3cc(C#N)cnc32)ncc1-c1cn(CC2CCC2)nn1 : 8.40

# pIC50 of CC(C)Nc1cc(-n2ncc3cc(C#N)cnc32)ncc1-n1cc(CCC(C)(C)OC(=O)CN)nn1 = 8.70

# pIC50 of CN(c1nc2c(cc1OCCOCCO)ncn2-c1ccc(C#N)cn1)[C@H]1CC[C@@](C)(O)CC1 = 7.66

The reported value for CC(C)(O)c1cc2nn(C3CCN(CCN4CCC5(CC4)CCN(C(=O)c4ccc(Cl)c(N6CCC(=O)NC6=O)c4)CC5)CC3)cc2cc1NC(=O)c1cccc(C(F)(F)F)n1 in terms of pIC50 is 8.10

GET /value?item= CC(C)(O)[C@H](F)CNC(=O)c1cnc(Nc2ccn3nccc3n2)cc1NC1CCOCC1 &field=pIC50 returns 8.51

Sample CC(C)Nc1c(-c2cn(CCCO)nn2)cnc2sc(-c3cncs3)cc12 ; pIC50 observed: 8.64

Noted for O=C(Nc1ccsc1Cl)c1ccc2ccc(N[C@@H]3CCCC[C@@H]3O)nn12 : its pIC50 reads 5.20

The recorded pIC50 for entry COC1CCC(O)(CCNC(=O)c2cnc(-c3cnn4cc(Cl)cnc34)cc2NC2COC2)CC1 (centres unmarked) equals 7.85

Consider CC(C)Nc1cc(-n2ncc3cc(C#N)cnc32)ncc1-c1cn(CC2CC2(F)F)nn1 (single isomer, unassigned) . Its measured pIC50 is 8.15

What the record says about CC(C)(O)[C@H](F)CNC(=O)c1cnc(Nc2ccc3ncsc3c2)cc1NC1CCCOC1 (some centres unmarked) : pIC50 is 8.44

CC(C)(O)[C@H](F)CNC(=O)c1cnc(C2=C3N=CC(C#N)C=C3N=N2)cc1N[C@@H]1CCCN(C(=O)CC(F)(F)F)C1 (some centres unmarked) has a reported pIC50 of 7.17

Please fill in: pIC50 reported for CC(C)Nc1c(C(=O)N[C@H]2C[C@H](O)C2)cnc2ccc(-c3cn[nH]c3)cc12 = 7.42

// CC(C)Nc1cc(-n2ncc3cc(C#N)cnc32)ncc1-c1cn([C@H]2CCN(C(=O)C(C)(C)C)C[C@H]2O)nn1 : pIC50 value = 8.15

The reported pIC50 of the compound CC(C)Nc1cc(Nc2ccc3ncsc3c2)ncc1C(=O)N[C@H]1CC[C@H](NC(=O)c2ccccn2)CC1 was 8.35

Notebook: CCC(C)(O)Cc1cn(-c2cnc(-n3ncc4cc(C#N)cnc43)cc2NC(C)C)nn1 (centres unmarked) , pIC50 read as 7.60

---

This section presents pIC50 values reported for IRAK4 (Homo sapiens (Human), UniProt Q9NWZ3) in the literature.
Please treat pIC50 as minus the base-10 logarithm of the molar concentration.

{"COMPOUND": "c1nc(N[C@H]2CC[C@H](N3CCOCC3)CC2)c2cc(-c3cnoc3)ccc2n1", "pIC50": 8.70}
{"COMPOUND": "Cc1cn2nccc2nc1Nc1cc(NC2CCOCC2)c(C(=O)NC[C@@H](F)C(C)(C)O)cn1", "pIC50": 7.99}
{"COMPOUND": "CC(C)Nc1cc(Nc2ccc3ncsc3c2)ncc1C(=O)N[C@H]1CC[C@H]([N+](=O)[O-])CC1", "pIC50": 8.27}
{"COMPOUND": "CCOCCNC(=O)c1cnc2ccc(-c3cn[nH]c3)cc2c1NC(C)C", "pIC50": 7.82}

The compound CCNc1cc(Nc2ccc3ncsc3c2)ncc1C(=O)NC[C@@H](F)C(C)(C)O on IRAK4 (Homo sapiens (Human), UniProt Q9NWZ3): pIC50 was 8.37

The reported IRAK4 (Homo sapiens (Human), UniProt Q9NWZ3) pIC50 of COc1cc2nn([C@H]3CC[C@@](O)(CC#N)CC3)cc2cc1NC(=O)c1cccc(C2CC2)[n+]1[O-] is 8.37

Known value: IRAK4 (Homo sapiens (Human), UniProt Q9NWZ3) pIC50 of the compound Cc1nsc2nc(Nc3cnn(C4CCOCC4)c3)nc(N[C@H]3CC[C@H](N4CCC(C(=O)O)CC4)CC3)c12 equals 8.30
